Tested on: Monkeypox virus
method_notes: Antiviral activity against monkeypox virus by CPE assay
Type: functional, organism-based
Assignment: determine reported pEC50 for the given compounds.
Numbers only, as −log10 of the molar value.

Some solved cases for reference:
[
  {
    "compound": "O=C(NN1C(=O)[C@@H]2C3C=CC(C4CC43)[C@@H]2C1=O)c1ccc(C(F)(F)F)cc1 (stereo partly specified)",
    "metric": "pEC50",
    "measured_result": 8.00
  },
  {
    "compound": "O=C(NN1C(=O)[C@@H]2C3C=CC(C4CC43)[C@@H]2C1=O)c1ccccc1Br (stereo partly specified)",
    "metric": "pEC50",
    "measured_result": 5.44
  },
  {
    "compound": "O=C(NN1C(=O)[C@@H]2C3C=CC(C4CC43)[C@@H]2C1=O)c1ccc(Br)cc1 (stereo partly specified)",
    "metric": "pEC50",
    "measured_result": 8.00
  },
  {
    "compound": "O=C(NN1C(=O)[C@@H]2C3C=CC(C4CC43)[C@@H]2C1=O)c1ccncc1 (stereo partly specified)",
    "metric": "pEC50",
    "measured_result": 6.82
  }
]

Continue with the compound presented below.
So what does the record say about pEC50 for O=C(NN1C(=O)[C@@H]2C3CCC(C4CC43)[C@@H]2C1=O)c1ccc(C(F)(F)F)cc1 (stereo partly specified) ?
7.10

====

What CC50 was measured for each of the following?
method_notes: Cytotoxicity against vaccinia virus IHD-J infected BSC40 cells
Type: cell-based, Macaca mulatta
stated_conditions: rhesus monkey, BSC-40 cells infected with vaccinia virus IHD-J

Please review the entries below; each comes with its answer.
[
  {
    "molecule": "CN(C)c1ccc(C(=O)NN2C(=O)[C@@H]3C4C=CC(C5CC54)[C@@H]3C2=O)cc1 (stereo partly drawn)",
    "measured_result": "> 100 µM"
  },
  {
    "molecule": "O=C(NN1C(=O)[C@@H]2C3C=CC(C4CC43)[C@@H]2C1=O)c1ccccc1Br (stereo partly drawn)",
    "measured_result": "> 100 µM"
  },
  {
    "molecule": "O=C(NN1C(=O)[C@@H]2C3C=CC(C4CC43)[C@@H]2C1=O)c1ccc(Cl)cc1 (stereo partly drawn)",
    "measured_result": "> 100 µM"
  },
  {
    "molecule": "O=C(NN1C(=O)[C@@H]2C3C=CC(C4CC43)[C@@H]2C1=O)c1ccccn1 (stereo partly drawn)",
    "measured_result": "> 100 µM"
  }
]

# map each molecule to its CC50
1. O=C(NN1C(=O)[C@@H]2C3CCC(C4CC43)[C@@H]2C1=O)c1ccc(C(F)(F)F)cc1 (stereo partly drawn)
2. O=C(NN1C(=O)[C@@H]2C3C=CC(C4CC43)[C@@H]2C1=O)c1ccc(Br)cc1 (stereo partly drawn)

["> 100 µM", "> 100 µM"]

Hi! Can you tell me CC50 for each of these molecules?
1. O=C(NN1C(=O)[C@@H]2C3C=CC(C4CC43)[C@@H]2C1=O)c1cccc(Cl)c1 (stereo partly drawn)
2. Nc1ccc(C(=O)NN2C(=O)[C@@H]3C4C=CC(C5CC54)[C@@H]3C2=O)cc1 (stereo partly drawn)
3. O=C(NN1C(=O)[C@@H]2C3C=CC(C4CC43)[C@@H]2C1=O)c1ccccc1Cl (stereo partly drawn)
4. Cn1cccc1C(=O)NN1C(=O)[C@@H]2C3C=CC(C4CC43)[C@@H]2C1=O (stereo partly drawn)
5. O=C(NN1C(=O)[C@@H]2C3C=CC(C4CC43)[C@@H]2C1=O)c1cccc(Br)c1 (stereo partly drawn)

1. > 100 µM
2. > 92 µM
3. > 100 µM
4. > 100 µM
5. > 100 µM

State the recorded CC50 for every item in the following list.
1. COc1ccc(C(=O)NN2C(=O)[C@@H]3C4C=CC(C5CC54)[C@@H]3C2=O)cc1 (stereo partly drawn)
2. O=C(NN1C(=O)[C@@H]2C3C=CC(C4CC43)[C@@H]2C1=O)c1ccc([N+](=O)[O-])cc1 (stereo partly drawn)

1. > 100 µM
2. > 86 µM

====

Tested on: Vaccinia virus
method_notes: Antiviral activity against vaccinia virus IHD-J in BSC40 cells by CPE assay
Assay type: functional, organism-based
stated_conditions: Orthopoxvirus vaccinia, BSC-40
pEC50: −log10 of the molar value.
Label rule, in plain words: pEC50 of 7 and up is satisfied, under 7 is not satisfied.

[
  {
    "compound": "O=C(NN1C(=O)[C@@H]2C3C=CC(C4CC43)[C@@H]2C1=O)c1ccc(C(F)(F)F)cc1 (some centres not stated)",
    "study_system": "Vaccinia virus",
    "cat": "satisfied"
  },
  {
    "compound": "Cc1cc(C(=O)NN2C(=O)[C@@H]3C4C=CC(C5CC54)[C@@H]3C2=O)[nH]n1 (some centres not stated)",
    "study_system": "Vaccinia virus",
    "cat": "not satisfied"
  },
  {
    "compound": "Cn1cccc1C(=O)NN1C(=O)[C@@H]2C3C=CC(C4CC43)[C@@H]2C1=O (some centres not stated)",
    "study_system": "Vaccinia virus",
    "cat": "not satisfied"
  },
  {
    "compound": "Nc1ccc(C(=O)NN2C(=O)[C@@H]3C4C=CC(C5CC54)[C@@H]3C2=O)cc1 (some centres not stated)",
    "study_system": "Vaccinia virus",
    "cat": "not satisfied"
  },
  {
    "compound": "CN(C)c1ccc(C(=O)NN2C(=O)[C@@H]3C4C=CC(C5CC54)[C@@H]3C2=O)cc1 (some centres not stated)",
    "study_system": "Vaccinia virus",
    "cat": "not satisfied"
  }
]

Would you say O=C(NN1C(=O)[C@@H]2C3C=CC(C4CC43)[C@@H]2C1=O)c1ccccc1Br (some centres not stated) shows pEC50 at minimum 7?
not satisfied

Confirm if pEC50 reported for the compound O=C(NN1C(=O)[C@@H]2C3C=CC(C4CC43)[C@@H]2C1=O)c1ccccc1Cl (some centres not stated) is 7 or above.
not satisfied

Does pEC50 meet or surpass 7 for COc1ccc(C(=O)NN2C(=O)[C@@H]3C4C=CC(C5CC54)[C@@H]3C2=O)cc1 (some centres not stated) ?
not satisfied

Please check the record O=C(NN1C(=O)[C@@H]2C3C=CC(C4CC43)[C@@H]2C1=O)c1ccc(Br)cc1 (some centres not stated) and state if its pEC50 is at or above 7.
satisfied

Hi, just wondering whether O=C(NN1C(=O)[C@@H]2C3C=CC(C4CC43)[C@@H]2C1=O)c1ccccn1 (some centres not stated) shows pEC50 of 7 or higher.
not satisfied

Please tell me: is the compound O=C(NN1C(=O)[C@@H]2C3CCC(C4CC43)[C@@H]2C1=O)c1ccc(C(F)(F)F)cc1 (some centres not stated) at or over 7 in terms of pEC50?
satisfied

Is pEC50 at least 7? Consider O=C(NN1C(=O)[C@@H]2C3C=CC(C4CC43)[C@@H]2C1=O)c1ccncc1 (some centres not stated)
not satisfied

====

method_notes: Clearance in rat at 2 mg/kg, po
Type: ADME, organism-based
Parameters: dose 2 mg/kg, route oral
stated_conditions: in vivo
metric: CL/F (mL/min/kg)
Give bare numbers, in mL/min/kg.

Reported CL/F for O=C(NN1C(=O)[C@@H]2C3C=CC(C4CC43)[C@@H]2C1=O)c1ccc(C(F)(F)F)cc1 (stereo partly specified) : what is it?
8.67

====

method_notes: Oral bioavailability in rat at 2 mg/kg, po
Format: ADME, organism-based
stated_conditions: in vivo
metric: bioavailability (%)
One number for each entry, in %.

Item under review: O=C(NN1C(=O)[C@@H]2C3C=CC(C4CC43)[C@@H]2C1=O)c1ccc(C(F)(F)F)cc1 (stereo partly specified) . Reported bioavailability?
31

====

Test system: Vaccinia virus
method_notes: Antiviral activity against vaccinia virus IHD-J in BSC40 cells by CPE assay
Assay type: functional, organism-based
stated_conditions: Orthopoxvirus vaccinia, BSC-40
metric: EC50

[
  {
    "compound": "O=C(NN1C(=O)[C@@H]2C3C=CC(C4CC43)[C@@H]2C1=O)c1cccc(Cl)c1 (stereo not given in full)",
    "EC50": "40 nM"
  },
  {
    "compound": "O=C(NN1C(=O)[C@@H]2C3C=CC(C4CC43)[C@@H]2C1=O)c1ccc(Cl)cc1 (stereo not given in full)",
    "EC50": "20 nM"
  },
  {
    "compound": "O=C(NN1C(=O)[C@@H]2C3C=CC(C4CC43)[C@@H]2C1=O)c1ccc([N+](=O)[O-])cc1 (stereo not given in full)",
    "EC50": "20 nM"
  }
]

Okay, here is my list. What is EC50 for each of these?
1. O=C(NN1C(=O)[C@@H]2C3C=CC(C4CC43)[C@@H]2C1=O)c1cccnc1 (stereo not given in full)
2. O=C(NN1C(=O)[C@@H]2C3C=CC(C4CC43)[C@@H]2C1=O)c1cccc(Br)c1 (stereo not given in full)

740 nM
50 nM
